# System: KHYG-1 (IL-2 2.5 ng/mL);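 note: normalised to DMSO-only wells as negative and benzethonium chloride as positive control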
# Assay: percent inhibition of viability; higher = more inhibition
# Condition Details: 72 h; 1 nM
Endpoint: percent inhibition of viability (%)
Field: numeric (%). Do not append units.

Previously resolved entries follow.
{"Compound": "CO[C@@]12[C@H](COC(N)=O)C3=C(C(=O)C(C)=C(N)C3=O)N1C[C@@H]1N[C@@H]12 [Mitomycin C] (max concentration tested 10000 nM)", "percent inhibition of viability (%)": -11.3}
{"Compound": "CO[C@H]1/C=C\\C=C(/C)C(=O)NC2=CC(=O)C(NCCN(C)C)=C(C[C@@H](C)C[C@H](OC)[C@H](O)[C@@H](C)/C=C(\\C)[C@@H]1OC(N)=O)C2=O [Alvespimycin] (max concentration tested 1000 nM)", "percent inhibition of viability (%)": 2.16}
{"Compound": "Nc1cccc2c1C(=O)N(C1CCC(=O)NC1=O)C2=O (stereo not given) [Pomalidomide] (max concentration tested 10000 nM)", "percent inhibition of viability (%)": -4.54}
{"Compound": "COc1ccc(-c2ccc3ncc4c(c3c2)n(-c2ccc(N3CCNCC3)c(C(F)(F)F)c2)c(=O)n4C)cn1 [NVP-BGT226] (max concentration tested 1000 nM)", "percent inhibition of viability (%)": 1.07}

Please give measured percent inhibition of viability of the following entry: O=C(Nc1c[nH]nc1-c1nc2ccc(CN3CCOCC3)cc2[nH]1)NC1CC1 [AT9283] (max concentration tested 1000 nM) -2.56
